# Tested on: MDA-MB-231 breast
# Experimental details: NCI-60 one-dose screen, 48 h (100 = growth as untreated, 0 = no growth, -100 = all killed)
# Condition description: 10 µM unless noted
Compounds without any hit were thinned out: in the full panel of roughly 83,000, 20% have a hit.
Item-by-item account of growth
Field: numeric (%). Do not append units.

Solved entries:
OC1CCc2c(-c3ccc4ncnc(N5CCc6cc(F)c(Cl)cc65)c4c3)cncc21 (centres undefined)	40.2
OC1CCN(CCCOc2c3ccc(Cl)cc3nc3c2oc2ccc(Cl)cc23)CC1	24.5
COc1cccc(OC)c1-c1nnn(C)c1C(=S)N1CCN(c2ccc([N+](=O)[O-])cc2Cl)CC1	90.5

Which growth is listed for O=C(O)CCCCCN1C(=O)/C(=C/c2ccc(O)c(O)c2)SC1=S ? 91.8

Which growth is listed for Cc1nc2cnc(N)c(C#Cc3cncc(C(=O)Nc4ccc(Cl)c(C(F)(F)F)c4)c3)c2nc1C ? 7.63

Which growth is listed for c1ccc2c(NCCCn3ccnc3)c3oc4ccccc4c3nc2c1 ? -10

Which growth is listed for O=C1C2=C(C(=O)c3c(O)cccc31)C(c1ccco1)c1sc(=O)[nH]c1S2 (centres undefined) ? 8.88

Which growth is listed for N/C(=N\c1nc2c(Cl)cc(Cl)cc2s1)C(Cl)(Cl)Cl ? 38.4

Which growth is listed for O=C(CSc1nnc(-c2ccc3nc(-c4ccc(Cl)cc4)[nH]c3c2)o1)Nc1ccc(C(=O)/C=C/c2ccc(Cl)cc2)cc1 ? 90.6

----------
# Test system: OVCAR-4 ovarian
# Experimental details: NCI-60 one-dose screen, 48 h (100 = growth as untreated, 0 = no growth, -100 = all killed)
# Condition description: 10 µM unless noted
Compounds without any hit were thinned out: in the full panel of roughly 83,000, 20% have a hit. Calls of active or inactive are those of the source. How the source made its calls: active means growth percent below 10; inactive means the rest.
Item-by-item account of growth

Solved entries:
OC1CCN(CCCOc2c3ccccc3nc3c2oc2ccc(Cl)cc23)CC1	19.1% (inactive)
Cc1cccc2sc(/N=C(\N)C(Cl)(Cl)Cl)nc12	97.4% (inactive)
Clc1ccc2c(NCCCN3CCOCC3)c3oc4ccc(Cl)cc4c3nc2c1	87.4% (inactive)
COc1cc(/C=C/C(=O)c2cc(OC)c(OC)c(OC)c2)ccc1Oc1nc(NCCO)nc(N2CCOCC2)n1	20% (inactive)

Which growth is listed for O=C1c2c(c3c4cccnc4[nH]c3c3ccc4ccccc4c23)C(=O)N1CCO ? 105% (inactive)

Which growth is listed for CCOC(=O)c1c(Nc2ccccc2)nn2c(N)c(C#N)c(-c3ccc(Cl)cc3)nc12 ? 44.1% (inactive)

Which growth is listed for C#Cc1nc(C2=C(C)C(O)/C(=N/O)C2)cs1 (centres undefined) ? 89.6% (inactive)

Which growth is listed for N#Cc1ccc(/C=N/NC(=O)c2[nH]c3ccc(Br)cc3c2-c2ccccc2)s1 ? 54.6% (inactive)

Which growth is listed for Cc1ccc(-c2nc(C(Cl)Cl)nc3cc(-c4ccccc4)nn23)cc1 ? -24% (active)

Which growth is listed for CNC(=O)c1cc(-c2ccc(NC(=O)Nc3ccc(N4CCN(C)CC4)c(C(F)(F)F)c3)cc2)nc2cccnc12 ? -82.4% (active)

Which growth is listed for Clc1ccc2c(OCCCN3CCOCC3)c3oc4ccccc4c3nc2c1 ? 59% (inactive)

Which growth is listed for COc1cccc(-c2nn(-c3ccccc3)cc2-c2ccnc(N3CCN(C(=O)Nc4ccc(F)cc4)CC3)c2)c1 ? 51.2% (inactive)

Which growth is listed for N#Cc1c(-c2ccc(Cl)cc2)nc(SCc2ccc(F)cc2)nc1N1CCNCC1 ? 78.7% (inactive)

Which growth is listed for COc1ccc(Cc2nn(CC(=O)N/N=C/c3ccc(Cl)cc3)c(=O)c3c(C)noc23)cc1 ? 59.2% (inactive)

Which growth is listed for NS(=O)(=O)c1cccc(Nc2nc(SCC(=O)c3ccc([N+](=O)[O-])cc3)nc3ccccc23)c1 ? 43% (inactive)

Which growth is listed for O=C(c1ccc(Cl)cc1)C1[C@H](c2ccc(Cl)cc2)[C@@H](c2ccccc2)NC12C(=O)Nc1ccc(Br)cc12 (some centres undefined) ? 44.6% (inactive)

Which growth is listed for O=C1NC(=C(Cl)Cl)/C(=N/S(=O)(=O)N2CCCCC2CC2(C(F)(F)F)N=N2)N1 (centres undefined) ? -10.2% (active)

Which growth is listed for Cc1nc2cnc(N)c(C#Cc3cncc(C(=O)Nc4ccc(Cl)c(C(F)(F)F)c4)c3)c2nc1C ? 65.2% (inactive)

Which growth is listed for CS(=O)(=O)c1ccc(-c2nc3ccccn3c2-c2nc3ccc([N+](=O)[O-])cc3[nH]2)cc1 ? 93.2% (inactive)

----------
# System: OVCAR-4 ovarian
# Experimental details: NCI-60 one-dose screen, 48 h (100 = growth as untreated, 0 = no growth, -100 = all killed)
# Condition description: 10 µM unless noted
This is part of a sample that, as a whole, favours compounds with a hit. Of some 83,000 tested, about 20% had one in any assay.
Label y for high-side growth (at or above 90%) and n for low-side growth (below it).

State whether the measured growth reaches 90%, counting equality as reaching it, for CCOC(=O)c1c(Nc2ccccc2)nn2c(N)c(C#N)c(-c3ccc(F)cc3)nc12 n

State whether the measured growth reaches 90%, counting equality as reaching it, for COc1cc(-c2nc3ccc(-c4nnc(SCC(=O)Nc5ccc(C(=O)/C=C/c6ccc(Cl)cc6)cc5)o4)cc3[nH]2)cc(OC)c1OC y

State whether the measured growth reaches 90%, counting equality as reaching it, for CCN1CCN(/C(=N\c2sc(-c3ccccc3)nc2-c2ccccc2)c2ccccc2)CC1 n

State whether the measured growth reaches 90%, counting equality as reaching it, for CCOC(=O)c1c(NC(=O)c2cccc(C(F)(F)F)c2)sc2cc(O)ccc12 y

State whether the measured growth reaches 90%, counting equality as reaching it, for CN(C)CCCNc1c2ccc(Cl)cc2nc2c1oc1ccccc12 n

State whether the measured growth reaches 90%, counting equality as reaching it, for Cn1cc(-c2cc(N)n3nc(-c4cn(C)c5ccc(Br)cc45)cc3n2)c2cc(Br)ccc21 n

State whether the measured growth reaches 90%, counting equality as reaching it, for COc1cc(/C=C/C(=O)c2ccc(Cl)cc2)ccc1Oc1nc(NCCO)nc(N2CCOCC2)n1 y

State whether the measured growth reaches 90%, counting equality as reaching it, for O=C1Nc2ccccc2Oc2ccc(S(=O)(=O)CC3CO3)cc21 (centres undefined) n

State whether the measured growth reaches 90%, counting equality as reaching it, for Clc1ccc(-c2cn3cc(Cc4ccc(Cl)c(Cl)c4)sc3n2)cc1 n

State whether the measured growth reaches 90%, counting equality as reaching it, for O=C(c1ccc(O)cc1)C1[C@H](c2ccc(Cl)cc2)[C@@H](c2ccccc2)NC12C(=O)Nc1ccc(Cl)cc12 (some centres undefined) n

State whether the measured growth reaches 90%, counting equality as reaching it, for COc1ccc(NC(=O)c2sc3nc(-c4cnccn4)cc(-c4cccs4)c3c2N)cc1 n

State whether the measured growth reaches 90%, counting equality as reaching it, for COc1ccc2[nH]cc(-c3cc(N)n4nc(-c5c[nH]c6ccc(OC)cc56)cc4n3)c2c1 n

State whether the measured growth reaches 90%, counting equality as reaching it, for C#Cc1nc(C2=C(C)C(OC(=O)CCC(=O)O)CC2)cs1 (centres undefined) y

State whether the measured growth reaches 90%, counting equality as reaching it, for Nc1ncc(-c2ccc3ncnc(N4CCc5cc(F)c(Cl)cc54)c3c2)cc1CO n

State whether the measured growth reaches 90%, counting equality as reaching it, for CC(C)(C)Nc1nc2c(OCCc3ccccc3)cccn2c1-c1cccc(F)c1 n

State whether the measured growth reaches 90%, counting equality as reaching it, for CO/N=C1\CCc2c(sc(NC(=O)c3cccc(C(F)(F)F)c3)c2C(N)=O)C1 n

State whether the measured growth reaches 90%, counting equality as reaching it, for Cc1[nH]nc2ncc(C#Cc3cncc(C(=O)Nc4ccc(CN5CCN(C)CC5)c(C(F)(F)F)c4)c3)cc12 n

----------
# Tested on: SNB-19 CNS
# Experimental details: NCI-60 one-dose screen, 48 h (100 = growth as untreated, 0 = no growth, -100 = all killed)
# Condition description: 10 µM unless noted
This is part of a sample that, as a whole, favours compounds with a hit. Of some 83,000 tested, about 20% had one in any assay.
Item-by-item account of growth
Field: numeric (%). Do not append units.

Solved entries:
COc1ccc(-c2nc3ccc(-c4nnc(SCC(=O)Nc5ccc(C(=O)/C=C/c6ccccc6)cc5)o4)cc3[nH]2)cc1OC	107
CCOC(=O)c1c(Nc2ccccc2)nn2c(N)c(C#N)c(-c3ccc(OC)cc3)nc12	76.5
Clc1ccc2c(NCCCn3ccnc3)c3oc4ccc(Cl)cc4c3nc2c1	82.8
NC(=O)c1cc(-c2ccc3ncnc(N4CCc5cc(F)c(Cl)cc54)c3c2)cnc1N	39.5
COc1cccc(N2CCN(c3ncnc4c3[nH]c3ccc(F)cc34)C[C@@H]2C)c1	-12
CCOC(=O)c1c(Nc2ccccc2)nn2c(N)c(C#N)c(-c3ccccc3)nc12	89.4

Query growth on SNB-19 CNS for COC(=O)c1ccc(NC(=S)N2CCc3ccc([N+](=O)[O-])cc3C2)cc1O 97.6

Query growth on SNB-19 CNS for COc1ccc(-n2c(SCC(=O)Nc3ccc(-c4nc5ccccc5[nH]4)cc3)nc3ccccc3c2=O)cc1 20.9

Query growth on SNB-19 CNS for C#Cc1nc(C2=C(C)C(O)/C(=N/O)C2)cs1 (centres undefined) 109
